# assay-info: Cynomolgus monkey IV/PO PK study
# Type: in vivo
# condition-info: male, cynomolgus monkey, plasma, intravenous, 1 mg/kg
readout-label: Vd (L/kg)

[[record]]
compound = "O=C(N[C@H]1CCCC[C@@H]1O)[C@H]1CN(Cc2ccc(-n3cccn3)cc2)c2ccccc2O1 [VU0486846]"
experimental_value = 1


====

# assay-info: Rat PK IV/PO crossover study
# Format: in vivo
# condition-info: male, Sprague-Dawley, rat, plasma, intravenous, 1 mg/kg
readout-label: Vd (L/kg)

[[record]]
smiles_data = "O=C(N[C@H]1CCCC[C@@H]1O)[C@H]1CN(Cc2ccc(-n3cccn3)cc2)c2ccccc2O1"
unit_of_measurement = "L/kg"
experimental_value = 1.8

